- Test system: K-562 leukemia
- TEST_DESCRIPTION: NCI tumour cell line growth inhibition, 48 h; in the data active = GI50 below about 0.43 µM; inactive = the rest
Outcome codes: t = active, f = inactive

>>> classification("CCOC(=O)[C@@H](C)C[C@H](Cc1ccccc1)NC(=O)c1csc([C@@H](C[C@H](C(C)C)N(C)C(=O)CNC(=O)[C@H]2CCCCN2C)OC(C)=O)n1")
"t"
>>> classification("COc1ccc([C@@]23Oc4cc(OC)cc(OC)c4[C@]2(O)[C@H](O)[C@H](C(=O)N(C)C)[C@H]3c2ccccc2)cc1")
"t"
>>> classification("OCCNc1nc2ccccc2c2[nH]c3ccccc3c12")
"f"
>>> classification("CC[n+]1c(-c2ccccc2)c2cc(N)ccc2c2ccc(N)cc21")
"f"
>>> classification("O=C(Nc1ccc(-n2cc(-c3ccncc3)c(-c3ccc(O)c(Cl)c3)n2)cc1)Nc1cc(C(F)(F)F)cc(C(F)(F)F)c1")
"f"
>>> classification("S=C(Sc1ccc(Cl)cc1)Sc1ccc(Cl)cc1")
"f"
>>> classification("O=C(CCCCN1CCN(CCCCC(=O)Nc2ccccc2C#C/C=C\\C#Cc2ccccc2C(F)(F)F)CC1)Nc1ccccc1C#C/C=C\\C#Cc1ccccc1C(F)(F)F")
"f"
>>> classification("COc1ccc(-c2cnc(-c3ccncc3-c3cccc(OC)c3)o2)cc1")
"t"

* * *

- System: T-47D breast
- TEST_DESCRIPTION: NCI tumour cell line growth inhibition, 48 h
Please use rule met whenever TGI is not below 5 µM, and rule not met whenever it is.

>>> classification("CCN(CC)CCCC(Nc1c2ccc(Cl)cc2nc2ccc(OC)cc12)c1ccc(Cl)cc1 (stereo not given)")
"rule not met"
>>> classification("C[C@]12CCc3nc(Nc4ccc(O)cc4)sc3C1=CC[C@@H]1[C@@H]2CC[C@]2(C)/C(=N/NC(N)=S)CC[C@@H]12")
"rule not met"
>>> classification("Cc1ccc(C(=O)Nc2ccc(CP(=O)(O)O)cc2CP(=O)(O)O)cc1N")
"rule met"
>>> classification("O=C(Nc1cccc2ccccc12)c1cc2ccccc2oc1=O")
"rule met"
>>> classification("O=c1[nH]nc(Nc2ccc(Cl)cc2)c2nnn(C3CCCCC3)c12")
"rule met"
>>> classification("CN(Cc1cnc2nc(N)nc(N)c2n1)c1ccc(C(=O)NC(CCC(=O)O)C(=O)O)c2ccccc12 (stereo not given)")
"rule met"
>>> classification("O=C(Nc1ccc(-n2cc(-c3ccncc3)c(-c3ccc(Cl)c(O)c3)n2)cc1)c1cc(C(F)(F)F)cc(C(F)(F)F)c1")
"rule met"
>>> classification("COC(=O)CCC(C)[C@H]1CCC2C3CC[C@@H]4CC5(CC[C@]4(C)C3C[C@H](OC(C)=O)[C@@]21C)OOC1(CCCCC1)OO5 (stereo not given in full)")
"rule met"
>>> classification("CCN1C(=O)N(CC)C2C1NC(=S)N2/N=C/C=C/c1ccccc1 (stereo not given)")
"rule met"

* * *

- System: T-47D breast
- TEST_DESCRIPTION: NCI tumour cell line growth inhibition, 48 h
The entries below come with measured TGI values attached.
PARAMETER: TGI

>>> experimental_result("COc1ccccc1N=Nc1c(O)ccc2ccccc12")
"> 100 µM"
>>> experimental_result("CCCCCCCCCCCCCCCCNc1nc(=O)n(C2OC(C)C(O)C2O)cc1F (centres undefined)")
"43.8 µM"
>>> experimental_result("CC(C)Oc1cccc(N2C(CCc3c[nH]c4ccc(Br)cc34)=NS(=O)(=O)c3cnccc32)c1")
"> 100 µM"
>>> experimental_result("COc1cccc2c(=O)oc(-c3ccccc3C)nc12")
"> 100 µM"
>>> experimental_result("Cn1c(CO)ccc1-c1ccc(-c2ccc(CO)[se]2)[se]1")
"> 100 µM"
>>> experimental_result("COc1cc2c(c3c1c(=O)c1ccccc1n3C)C=C([N+](=O)[O-])C(C)(C)O2")
"> 100 µM"
>>> experimental_result("O=C1c2cccc3c(N4CCOCC4)ccc(c23)C(=O)N1CCN1CCN(CCCCCN2CCN(CCN3C(=O)c4cccc5c(N6CCOCC6)ccc(c45)C3=O)CC2)CC1")
"> 100 µM"
>>> experimental_result("Cc1ccc(S(=O)(=O)OCCN(CCOS(=O)(=O)c2ccc(C)cc2)c2ccc(C=O)cc2)cc1")
"> 100 µM"
>>> experimental_result("CC1(C)CCC[C@@]2(C)C1CC[C@@]1(CO)O[C@H](C3=CC(=O)OC3O)C[C@H]12 (some centres undefined)")
"25.8 µM"

* * *

- Test system: SF-295 CNS
- TEST_DESCRIPTION: NCI tumour cell line growth inhibition, 48 h
PARAMETER: TGI

>>> experimental_result("COC(=O)Nc1cc(OCCCOC(C)=O)c2[nH]c(C(=O)OC)cc2c1C[C@H](O)CO")
"> 100 µM"
>>> experimental_result("CCCCCCCCCCCC1=C(O)C(=O)C(CC2=C(O)C(=O)C(CCCCCCCCCCC)=C(O)C2=O)=C(O)C1=O")
"> 100 µM"
>>> experimental_result("Cc1n[nH]c(=O)n1-n1cccc1")
"> 100 µM"
>>> experimental_result("O=C1Nc2noc(=O)nc2NO1")
"> 200 µM"
>>> experimental_result("COc1ccc(/C=C/C(=O)c2c(-c3ccccc3)nn(C)c(=O)c2N2CCCCC2)cc1")
"44.4 µM"
>>> experimental_result("O=C1OC(=O)c2c1nc1ccccc1c2-c1ccccc1")
"> 100 µM"
>>> experimental_result("CC1CC(c2ccccc2)=Nc2ccccc2S1 (stereo not given)")
"> 100 µM"
>>> experimental_result("CCOC(=O)CNC(=O)c1[nH]cnc1/N=N/N(C)C")
"> 100 µM"
>>> experimental_result("OCCN1CCN(c2nc(N3CCCC3)c3nc(Cl)c(NCc4ccccc4)nc3n2)CC1")
"13.4 µM"
>>> experimental_result("N#Cc1ccccc1Sc1ccccc1N")
"> 100 µM"

* * *

- System: T-47D breast
- TEST_DESCRIPTION: NCI tumour cell line growth inhibition, 48 h
The entries below come with measured TGI values attached.
PARAMETER: TGI

>>> experimental_result("CN(C)C1C(=O)C(C(N)=O)=C(O)C2(O)C(=O)C3=C(O)c4c(O)cccc4C(C)(O)C3CC12.[Cl][Sb]([Cl])[Cl] (stereo not drawn)")
"13.2 µM"
>>> experimental_result("COC(=O)c1ccc(NC(N)=NCCC(C)(C)c2ccc(C(F)(F)F)cc2)nc1")
"4.71 µM"
>>> experimental_result("Nc1nc(-c2ccccc2)c(CC(=O)O)s1")
"> 100 µM"
>>> experimental_result("Cc1nc(C(=Nc2ccc(Br)cc2)Nn2cnnc2)no1")
"> 100 µM"
>>> experimental_result("COC(=O)Nc1cc(OCCCOC(C)=O)c2[nH]c(C(=O)OC)cc2c1C[C@H](O)CO")
"> 100 µM"
>>> experimental_result("CCOC(=O)c1cc(C(=O)c2ccc(OC)c(OC)c2)n2c1ccc1ccc3cccnc3c12")
"> 100 µM"
>>> experimental_result("CO[C@H]1C(=O)[C@]2(C)[C@@H](OC)C[C@H]3OC[C@@]3(OC(C)=O)[C@H]2[C@H](OC(=O)c2ccccc2)[C@]2(O)C[C@H](OC(=O)[C@H](O)[C@@H](NC(=O)OC(C)(C)C)c3ccccc3)C(C)=C1C2(C)C")
"> 100 µM"
>>> experimental_result("COc1ccc(S(=O)(=O)NC(CCC(=O)NC(N)=O)C(=O)NC(N)=O)cc1 (stereo not drawn)")
"> 100 µM"

* * *

The entries below come with measured TGI values attached.
- System: 786-0 renal
- TEST_DESCRIPTION: NCI tumour cell line growth inhibition, 48 h
PARAMETER: TGI

>>> experimental_result("COC1=C(OC)C(=O)C(Cc2c(Cl)nc3sccn23)=C(C)C1=O")
"33.2 µM"
>>> experimental_result("CC(C)=CC1C(C(=O)OCc2cc3c(cc2Cl)OCO3)C1(C)C (stereo not given)")
"> 100 µM"
>>> experimental_result("CC1=NC(=N)N=C(C)C1N=Nc1ccc2nc(C)[nH]c2c1 (stereo not given)")
"> 100 µM"
>>> experimental_result("CC(C)(C)O/N=C/c1cc(NC(=S)c2ccccc2)ccc1Cl")
"32.5 µM"
>>> experimental_result("O=C(OCCN=c1c2ccccc2ccc2ccccc12)c1cc([N+](=O)[O-])cc([N+](=O)[O-])c1")
"> 100 µM"
>>> experimental_result("CCOC(=O)CNC(=O)c1[nH]cnc1/N=N/N(C)C")
"> 100 µM"
>>> experimental_result("O=C1c2cccc3c(N4CCOCC4)ccc(c23)C(=O)N1CCN1CCN(CCCCCN2CCN(CCN3C(=O)c4cccc5c(N6CCOCC6)ccc(c45)C3=O)CC2)CC1")
"> 100 µM"
>>> experimental_result("CC(C)N(C(=O)C12C3C4C1C1C4(C#N)C3C12C(=O)O)C(C)C (stereo not given)")
"> 100 µM"
>>> experimental_result("C[n+]1c2ccccc2n2c3ccccc3c(NCCCn3ccnc3)c(C#N)c21")
"10.6 µM"
>>> experimental_result("C#Cc1cccc(NC(=O)/C=C\\C(=O)O)c1")
"> 100 µM"
